Consider the following Ki data for Apoptosis regulator Bcl-2 (Homo sapiens), collected from several reports.

| compound | Ki |
| --- | --- |
| C[C@@H]1[C@@H](NC(=O)[C@@H]2[C@H]([C@H](C)O)[C@H](CO)ON2Cc2cccc(-c3cccc(C(=O)NCCO)c3)c2)C[C@H]2C[C@@H]1C2(C)C | < 800 nM |
| COc1c(CN2O[C@@H](CO)[C@@H]([C@H](C)O)[C@H]2C(=O)N[C@H]2C[C@H]3C[C@@H]([C@@H]2C)C3(C)C)cccc1-c1cc(C(=O)N[C@H](CN(C)C)[C@H](O)c2ccccc2)cc(N(C)C)c1 | < 1 nM |
| CC(C)C[C@@H](CN(C)C)N(Cc1cccc(CN2O[C@@H](CO)C([C@H](C)O)[C@H]2C(=O)N[C@H]2C[C@H]3C[C@@H]([C@@H]2C)C3(C)C)c1)Cc1c(Cl)cccc1[N+](=O)[O-] (some centres unmarked) | < 800 nM |
| C[C@H](O)[C@@H]1[C@H](CO)ON(Cc2cccc(N3CCN(C(=O)OCc4ccccc4)CC3)c2)[C@@H]1C(=O)NC1C[C@H]2C[C@@H]([C@@H]1C)C2(C)C (some centres unmarked) | < 800 nM |
| C[C@@H]1[C@@H](NC(=O)[C@@H]2[C@H]([C@H](C)O)[C@H](CO)ON2Cc2cccc(NC(=O)N(C)[C@@H](CC3CCCCC3)CN(C)C)c2)C[C@H]2C[C@@H]1C2(C)C | < 800 nM |
| O=C(c1ccc(CN(Cc2ccc(F)cc2)S(=O)(=O)c2cc(Cl)cc(Cl)c2O)cc1)N(Cc1ccc(F)cc1)Cc1cc(Cl)cc(Cl)c1 | 40 nM |
| C[C@@H]1[C@@H](NC(=O)[C@@H]2C([C@H](C)O)[C@H](CO)ON2Cc2cccc(CN(Cc3ccccc3)C[C@@H]3CCCN3C(=O)OCc3ccccc3)c2)C[C@H]2C[C@@H]1C2(C)C (some centres unmarked) | 800 to 6000 nM |
| CCCCCCCCc1ccc(CN(Cc2cccc(Oc3ccc(F)cc3)c2)S(=O)(=O)c2cc(Cl)cc(Cl)c2O)cc1 | 80 nM |
| COc1c(CN2O[C@@H](CO)[C@@H]([C@H](C)O)[C@H]2C(=O)N[C@H]2C[C@H]3C[C@@H]([C@@H]2C)C3(C)C)cccc1-c1cc(C(=O)N[C@@H](Cc2ccccc2)CN(C)C)cc([N+](=O)[O-])c1 | < 1 nM |
| CC1(C)CCC(CN2CCN(c3ccc(C(=O)NS(=O)(=O)c4cnc(OC[C@H]5CC[C@H](O)CC5)c(Cl)c4)c(Oc4cc(F)cc5[nH]ncc45)c3)CC2)=C(c2ccc(Cl)cc2)C1 | < 0.01 nM |
| C[C@H](O)[C@@H]1[C@H](CO)ON(Cc2cccc(CN(CCN(C)C)Cc3ccccc3)c2)[C@@H]1C(=O)Nc1cccc(-c2ccccc2)c1 | < 800 nM |
| CCNC(=O)c1cccc(-c2cccc(CN3O[C@@H](CO)[C@@H]([C@H](C)O)[C@H]3C(=O)N[C@H]3C[C@H]4C[C@@H]([C@@H]3C)C4(C)C)c2)c1 | < 800 nM |
| CCOc1c(CN2O[C@@H](CO)[C@@H]([C@H](C)O)[C@H]2C(=O)N[C@H]2C[C@H]3C[C@@H]([C@@H]2C)C3(C)C)cccc1-c1cc(C(=O)N[C@H](CC(C)C)CN(C)C)cc(N(C)C)c1 | < 1 nM |
| COc1c(CN2O[C@@H](CO)[C@@H]([C@H](C)O)[C@H]2C(=O)N[C@H]2C[C@H]3C[C@@H]([C@@H]2C)C3(C)C)cccc1-c1cc(C(=O)N[C@H](CN(C)C)[C@H](OC)c2ccccc2)cc(N(C)C)c1 | < 1 nM |
| C[C@@H](O)[C@H]1[C@@H](CO)ON(Cc2cccc(C#CCNC(=O)NCc3ccccc3)c2)[C@H]1C(=O)NCCCN(C)c1ccccc1 | 800 to 6000 nM |
| Cc1ccc(S(=O)(=O)N(Cc2cc(CN(Cc3ccc(F)cc3)S(=O)(=O)c3cc(Cl)cc(Cl)c3O)cc(Oc3ccc(F)cc3)c2)CC(C)C)cc1 | 10 nM |
| C[C@@H]1[C@@H](NC(=O)[C@@H]2C([C@H](C)O)[C@H](CO)ON2Cc2cccc(CN(CCN(C)C)Cc3cccc(F)c3F)c2)C[C@H]2C[C@@H]1C2(C)C (some centres unmarked) | < 800 nM |
| COc1cccc(F)c1CN(Cc1cccc(CN2OC(CO)C(C(C)O)C2C(=O)NC2CC3CC(C2C)C3(C)C)c1)C(CC(C)C)CN(C)C (centres unmarked) | < 800 nM |
| CC(O)C1C(CO)ON(Cc2cccc(CN3CCC(c4ccccc4)C3CN(C)C)c2)C1C(=O)NC1CC2CC(C1C)C2(C)C (centres unmarked) | < 800 nM |
| CNC(=O)c1cc(-c2cccc(CN3O[C@@H](CNCC4CC4)[C@@H]([C@H](C)O)[C@H]3C(=O)N[C@H]3C[C@H]4C[C@@H]([C@@H]3C)C4(C)C)c2OC)cc(N(C)C)c1 | 5 to 9 nM |

====

Below are Ki measurements against Apoptosis regulator Bcl-2 (Homo sapiens, UniProt P10415) drawn from the literature.

| molecule | Ki |
| --- | --- |
| C[C@@H]1[C@@H](NC(=O)[C@@H]2[C@H]([C@H](C)O)[C@H](CO)ON2Cc2cccc(-c3ccc(-n4ccnc4)cc3)c2)C[C@H]2C[C@@H]1C2(C)C | < 800 nM |
| CCC(C)C(CN(C)C)N(Cc1cccc(CN2OC(CO)C(C(C)O)C2C(=O)NC2CC3CC(C2C)C3(C)C)c1)Cc1c(O)cccc1F (centres unmarked) | < 800 nM |
| CCNC[C@@H]1ON(Cc2cccc(-c3cc(C(=O)NC)cc(N(C)C)c3)c2OC)[C@H](C(=O)N[C@H]2C[C@H]3C[C@@H]([C@@H]2C)C3(C)C)[C@@H]1[C@H](C)O | 1 to 5 nM |
| C[C@H](O)[C@@H]1[C@H](CO)ON(Cc2cccc(CN(CCN(C)C)Cc3ccccc3)c2)[C@@H]1C(=O)NC1CCN(C(=O)OC(C)(C)C)CC1 | 6000 to 50000 nM |
| O=S(=O)(c1cc(Cl)cc(Cl)c1O)N(Cc1ccc(F)cc1)Cc1ccc(CN(Cc2ccc(F)cc2)S(=O)(=O)c2cc(Cl)cc(Cl)c2O)cc1 | 110 nM |
| NS(=O)(=O)c1ccc(CNC(=O)c2ccc(CN(Cc3ccc(F)cc3)S(=O)(=O)c3cc(Cl)cc(Cl)c3O)cc2)cc1 | 960 nM |
| CNC(=O)c1cc(-c2cccc(CN3O[C@@H](CN)[C@@H]([C@H](C)O)[C@H]3C(=O)N[C@H]3C[C@H]4C[C@@H]([C@@H]3C)C4(C)C)c2OC)cc(N(C)C)c1 | 1 to 5 nM |
| CC(C)CN(Cc1cc(Cl)cc(CN(CC(C)C)S(=O)(=O)c2cc(Cl)cc(Cl)c2O)c1)C(=O)c1cccc(SC(F)(F)F)c1 | 349 nM |
| COc1c(CN2O[C@@H](CO)[C@@H]([C@H](C)O)[C@H]2C(=O)N[C@H]2C[C@H]3C[C@@H]([C@@H]2C)C3(C)C)cccc1-c1ccc(C(=O)N(C)C)cc1 | < 800 nM |
| C[C@@H]1[C@@H](NC(=O)[C@@H]2[C@H]([C@H](C)O)[C@H](CN)ON2Cc2cccc(-c3cc(C(=O)NCCN(C)C)cc(N(C)C)c3)c2F)C[C@H]2C[C@@H]1C2(C)C | 1 to 5 nM |
| COc1c(CN2CCC[C@@H]2C(=O)N[C@H]2C[C@H]3C[C@@H]([C@@H]2C)C3(C)C)cccc1-c1cc(C(=O)N[C@@H](Cc2ccccc2)CN(C)C)cc([N+](=O)[O-])c1 | 300 to 50000 nM |

====

Assay read-out Ki on Apoptosis regulator Bcl-2 (Homo sapiens); records merged from the literature.
property: Ki

| compound | property | measured-result |
| --- | --- | --- |
| CCCNC(=O)c1ccc(-c2cccc(CN3O[C@@H](CO)[C@@H]([C@H](C)O)[C@H]3C(=O)N[C@H]3C[C@H]4C[C@@H]([C@@H]3C)C4(C)C)c2)cc1 | Ki | < 800 nM |
| CCOc1c(CN2O[C@@H](CO)[C@@H]([C@H](C)O)[C@H]2C(=O)N[C@H]2C[C@H]3C[C@@H]([C@@H]2C)C3(C)C)cccc1-c1cc(C(=O)N[C@H](CN(C)C)CC(C)(C)C)cc(N(C)C)c1 | Ki | < 1 nM |
| C[C@@H](O)[C@H]1[C@@H](CO)ON(Cc2cccc(C#CC(O)c3ccoc3)c2)[C@H]1C(=O)NCCCN(C)c1ccccc1 (some centres unmarked) | Ki | 800 to 6000 nM |
| CCOc1cccc(CN(Cc2cccc(CN3O[C@@H](CO)C([C@H](C)O)[C@H]3C(=O)N[C@H]3C[C@H]4C[C@@H]([C@@H]3C)C4(C)C)c2)[C@@H](CC(C)C)CN(C)C)c1O (some centres unmarked) | Ki | < 800 nM |
| O=C(NCc1ccccc1)c1cc(Cl)c(O)c(S(=O)(=O)N(Cc2ccc(F)cc2)Cc2ccc(Oc3ccc(C(F)(F)F)cc3)cc2)c1 | Ki | 170 nM |
